Target: T1, 4H3009-AA
T1 chain: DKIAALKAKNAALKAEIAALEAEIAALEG
Assay: two-hybrid library CCmax;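 further: natural log of median RNA to DNA barcode read ratio; higher means stronger binding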
Details: mean of both orientations
just bin them by interaction score: interval 1: < -0.2; interval 2: ≥ -0.2 and < 1; interval 3: ≥ 1

Problem: Which band does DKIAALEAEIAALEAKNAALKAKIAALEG [4H2109-AA] fall in?
Solution: interval 1

Problem: Which band does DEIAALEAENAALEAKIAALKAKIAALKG [4H174-AA] fall in?
Solution: interval 3

Problem: Which band does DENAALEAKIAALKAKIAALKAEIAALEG [4H1385-AA] fall in?
Solution: interval 3

Problem: Which band does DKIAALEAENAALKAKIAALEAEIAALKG [4H2274-AA] fall in?
Solution: interval 2

Problem: Which band does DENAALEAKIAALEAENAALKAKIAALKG [4H1310-AA] fall in?
Solution: interval 2

Problem: Which band does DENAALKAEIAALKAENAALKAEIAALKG [4H1626-AA] fall in?
Solution: interval 1

Problem: Which band does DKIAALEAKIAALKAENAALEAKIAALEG [4H2389-AA] fall in?
Solution: interval 3

Problem: Which band does DKIAALKAKIAALEAKNAALEAEIAALEG [4H2865-AA] fall in?
Solution: interval 3

Problem: Which band does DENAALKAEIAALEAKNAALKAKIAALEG [4H1597-AA] fall in?
Solution: interval 1

Problem: Which band does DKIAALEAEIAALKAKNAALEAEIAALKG [4H2162-AA] fall in?
Solution: interval 1

Problem: Which band does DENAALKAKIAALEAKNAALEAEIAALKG [4H1842-AA] fall in?
Solution: interval 1

Problem: Which band does DKIAALKAENAALEAKIAALEAKIAALEG [4H2725-AA] fall in?
Solution: interval 3

Problem: Which band does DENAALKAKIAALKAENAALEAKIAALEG [4H1877-AA] fall in?
Solution: interval 3
